Origin of values: patent US20200385371A1

WDR5 (Homo sapiens): reported IC50 for various compounds.
RECORDED METRIC: IC50 (nM)

Completed entries (count: 3):
CPD SMILES: C[C@@H]1CN(c2ncc(-c3c(F)cc(N4CCN(C)[C@@H](C)C4)c(NC(=O)c4cn(C)c(=O)cc4C(F)F)c3F)cn2)C[C@H](C)O1
IC50, nM: 11.9

CPD SMILES: C[C@@H]1CN(c2ncc(-c3c(F)cc(N4C[C@@H](C)N(C)[C@@H](C)C4)c(NC(=O)c4c[nH]c(=O)cc4C(F)(F)F)c3F)cn2)CCO1
IC50, nM: 12.8

CPD SMILES: Cc1sc(-c2c(F)cc(N3CCN(C)[C@@H](C)C3)c(NC(=O)c3ccc(F)cc3C(F)F)c2F)nc1C(=O)N1CCCC1
IC50, nM: 5

I = C[C@@H]1CN(c2cc(F)c(-c3ccnc(N4CCOCC4)c3)c(F)c2NC(=O)c2c[nH]c(=O)cc2C(F)(F)F)C[C@H](C)N1C
II = C[C@H]1CN(c2cc(F)c(C3=CCN(c4ncc(C#N)s4)CC3)c(F)c2NC(=O)c2c[nH]c(=O)cc2C(F)F)CCN1C
q: Quick one: lower IC50, I or II ? Refer to your chosen entry by its label in the reply.
a: II
